experiment: adipocyte viability effects, profiling panel, cell-based, 3T3-L1 adipocytes, calcein-AM fluorescence, 48 h, basal (AID 1163); settings: 3T3-L1 adipocytes viability, higher = more signal; further: test concentration not given here
metric-name: z-score
Answer using only a numeral; do not append any unit.

Here are 5 compounds together with their reported answers.
compound=COc1ccc([Si](C)(C)[C@@H]2[C@@H](CC(=O)N3Cc4ccccc4C[C@H]3CO)O[C@]3(C(=O)N(Cc4cccc(N5C(=O)c6cccc7cccc5c67)c4)c4ccccc43)[C@H]2C)cc1 numeric_readout=1.11
compound=C=CCOC(=O)[C@H]1[C@@H]2C(=O)O[C@@H](c3ccccc3)[C@@H](c3ccccc3)N2[C@@H](c2ccc(OCCOC(=O)[C@@H]3C[C@@H]4C(=O)N5CCC[C@H]5C(=O)N4[C@@H]3c3ccc(O)cc3)cc2)[C@]12C(=O)Nc1ccc(I)cc12 numeric_readout=0.276
compound=COc1ccc([Si](C)(C)[C@@H]2[C@@H](CCO)O[C@]3(C(=O)N(Cc4ccc(N5CCCCC5=O)cc4)c4ccccc43)[C@H]2C)cc1 numeric_readout=-0.686
compound=C[N+](C)(C)CCCCCCNC(=O)[C@H]1C[C@H]2C(=O)N[C@@H](Cc3ccccc3)C(=O)N2[C@H]1c1ccc(O)cc1 numeric_readout=-1.42
compound=C=C(/C(=C/C[C@H](OC(=O)c1ccncc1)c1ccc(CO)o1)c1cc(C(=O)OC)ccc1OC)C(C)C numeric_readout=-0.0308

### Prompt Find the recorded z-score belonging to `COC(=O)[C@@]1(Cc2ccc(F)cc2)[C@H]2c3cc(C(=O)N(C)C)n(CCc4ccc(O)c(OC)c4)c3C[C@H]2CN1C(=O)c1ccccc1` and report it.
### Response -0.306

### Prompt Would you mind telling me what z-score value was observed for O=C1OCCC/C=C\[C@H]2OC34C=CCN(CCN5CCOCC5)C(=O)[C@H]3N(CCCCCCO)C(=O)[C@@H]4C12 (stereo partly drawn) ?
### Response 1.3

### Prompt Need z-score of `C=CCNC(=O)[C@@H]1[C@H]2C(=O)O[C@H](c3ccccc3)[C@H](c3ccccc3)N2[C@H](c2ccc(O)cc2)[C@@]12C(=O)N(C(=O)OCCOC)c1ccc(C#CC3(O)CCCCCC3)cc12` , thanks.
### Response 0.284

### Prompt Name the recorded z-score for `O=C(NCCCCCNC(=O)/C(Cc1ccccc1)=N/O)OCc1ccccc1` .
### Response 0.989

### Prompt Please give the measured z-score for this compound: O=C1OCC=C[C@H]2OC34C=CCN(Cc5ccccc5)C(=O)[C@H]3N(CCCCCCO)C(=O)[C@@H]4[C@@H]12 (stereo partly drawn)
### Response 0.98

### Prompt Requested field: z-score. Item: O=C1C2C=CC(C(O)c3ccc(F)cc3)N(n3cnnc3)C2C(=O)N1Cc1ccccc1 (stereo not drawn)
### Response 0.799

### Prompt Would you mind telling me what z-score value was observed for `C=CCN1C(=O)[C@@]2(O[C@@H](CCn3cc([C@H](O)c4ccccc4)nn3)[C@H]([Si](C)(C)c3ccc(OC)cc3)[C@H]2C)c2cc(N3CCC3=O)ccc21` ?
### Response 0.977

### Prompt Fill in the blank: the reported z-score of `COc1cc2c(cc1OC)CN(C(=O)[C@@H]1[C@H]3C(=O)O[C@H](c4ccccc4)[C@H](c4ccccc4)N3[C@H](c3ccc(OCCO)cc3)[C@@]13C(=O)Nc1ccc(C#CC4(O)CCCCCC4)cc13)CC2` is ____.
### Response 1.72

----------
composite z-score values by entry
test: binders of probe aFST on microarray, primary screen, stem cell growth factor project, biochemical, small-molecule microarray, fluorescence 635/667 (AID 1086); settings: higher = more signal;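 further: score merges 667 nm fluorescence with signal-to-noise of each printed compound spot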
# respond with the number and nothing more

### Prompt Suppose we examine the molecule Cc1ccccc1C(O)C1C=CC2C(=O)N(C)C(=O)C2N1N(c1ccccc1)c1ccccc1 (stereo not drawn) ; what composite z-score value has been reported?
### Response 0.606

----------
target: Torsin-1A-interacting protein 2 (Homo sapiens) (UniProt Q8NFQ8); assay: LULL1 binders on small-molecule microarray, primary screen, cell lysate, human LULL1 lysate, 635/667 nm fluorescence (AID 1092); settings: hLULL1 lysate binding, 635 nm fluorescence, higher = more signal;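 further: probe is lysate of COS7 cells overexpressing human LULL1; score merges per-feature 667 nm fluorescence with signal-to-noise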
Sequence (Q8NFQ8 whole entry, looked up): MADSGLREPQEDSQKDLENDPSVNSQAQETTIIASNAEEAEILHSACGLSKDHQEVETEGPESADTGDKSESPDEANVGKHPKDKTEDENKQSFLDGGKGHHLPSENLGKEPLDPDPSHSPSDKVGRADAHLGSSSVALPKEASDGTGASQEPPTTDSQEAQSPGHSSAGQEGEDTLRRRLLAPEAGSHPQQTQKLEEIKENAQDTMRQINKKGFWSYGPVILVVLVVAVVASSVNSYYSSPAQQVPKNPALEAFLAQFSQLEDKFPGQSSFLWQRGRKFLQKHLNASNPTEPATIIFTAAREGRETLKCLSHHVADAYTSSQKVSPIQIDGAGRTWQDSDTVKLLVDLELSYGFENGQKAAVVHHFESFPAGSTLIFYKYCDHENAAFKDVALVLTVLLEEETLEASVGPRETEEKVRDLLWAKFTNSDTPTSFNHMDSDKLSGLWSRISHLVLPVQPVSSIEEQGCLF
Reported values of composite z-score for individual entries

Some entries whose results are on file:
compound=COC(=O)[C@@]1(Cc2ccc(OC)cc2)[C@H]2c3cc(C(=O)N4CCCC4)n(Cc4c(-c5ccccc5)noc4C)c3C[C@H]2CN1C(=O)c1ccccc1 study_target="Torsin-1A-interacting protein 2 (Homo sapiens) (UniProt Q8NFQ8)" metric_name="composite z-score" result=3.31
compound=CCOC(=O)[C@H]1[C@@H]2C(=O)N3CCC[C@H]3[C@H](O[Si](C(C)C)(C(C)C)C(C)C)[C@H]2C=C2CCN(S(=O)(=O)c3ccc(C)cc3)C[C@H]21 study_target="Torsin-1A-interacting protein 2 (Homo sapiens) (UniProt Q8NFQ8)" metric_name="composite z-score" result=2.38
compound=CCOC(=O)C1=CC[C@@H](c2cccc(Cl)c2)N(S(=O)(=O)c2ccc(C)cc2)C1 study_target="Torsin-1A-interacting protein 2 (Homo sapiens) (UniProt Q8NFQ8)" metric_name="composite z-score" result=2.54

Switching to the query record.
### Prompt I would be grateful if you could share the reported composite z-score for C=C(C)C1CCC(C(O)C2C=CC3C(=O)N(C)C(=O)C3N2N2CCCCC2)CC1 (centres undefined) .
### Response 3.04

----------
z-score values for the compounds below.
test: E. coli acrAB mutant growth effects, primary screen, E. coli filamentation inducers, strain DRC39, OD650, 48 h (AID 1179);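 further: screen aims at cell division blockers that make cells filament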; details: E. coli DRC39 delta-acrAB growth, higher = more signal, called active from +8 up or from −8 down
// return a plain number; no unit text

Some solved entries appear below for comparison.
compound="N#Cc1ccc(C(O)C2C=CC3C(=O)N(c4ccccc4)C(=O)C3N2Nc2ccccc2)cc1 (centres undefined)" metric_name=z-score numeric_readout=0.0165
compound=C=CCNC(=O)[C@@H]1[C@H]2C(=O)O[C@H](c3ccccc3)[C@H](c3ccccc3)N2[C@H](c2ccc(O)cc2)[C@@]12C(=O)N(C(=O)OCCOC)c1ccc(C#CC3(O)CCCCCC3)cc12 metric_name=z-score numeric_readout=0.957
compound=CC(=O)NCCCC[C@@H]1NC(=O)[C@@H]2C[C@H](C(=O)NCCCC[N+](C)(C)C)[C@H](c3ccc(O)cc3)N2C1=O metric_name=z-score numeric_readout=-1.1

Alright, here's another compound for you.
### Prompt Can you share its z-score? I mean this compound: `Cc1ccc(S[C@]2(C(=O)NCC(F)(F)F)CC(=O)N(Cc3ccccc3C(F)(F)F)[C@@H]2c2ccc(CO)cc2I)cc1`
### Response 1.21

----------
In this section, each of the compounds is paired with its reported z-score.
assay: yeast growth modulation, basal conditions, primary screen, YJM789 clinical isolate, OD600, 24 h (AID 1089);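 further: growth of clinical yeast isolate S. cerevisiae YJM 789 seeded 1000 cells per well; test concentration not given here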; conditions: S. cerevisiae YJM789 growth, higher = more signal, called active from +8 up or from −8 down
Would you mind answering with just the numeric figure?

compound=COc1cc(CO)cc(I)c1O[C@H]1C=C(C(=O)NCCO)C[C@@H](NCc2ccc(F)cc2)[C@@H]1O metric_name=z-score numeric_readout=1.41
compound=COc1ccc(C#Cc2ccc3c(c2)[C@]2(C(=O)N3)[C@H](c3ccc(O)cc3)N3[C@H](c4ccccc4)[C@H](c4ccccc4)OC(=O)[C@H]3[C@@H]2C(=O)O)cc1 metric_name=z-score numeric_readout=1.11
compound=CCCCCCc1nc(C2CC2)cc2c1[Si](C(C)C)(C(C)C)OC2 metric_name=z-score numeric_readout=0.01

### Prompt Given the entry `COc1ccc(CCNC(=O)[C@@]2(Sc3ccc(C)cc3)CC(=O)N(C3Cc4ccccc4C3)[C@@H]2c2ccc(CO)cc2)cc1` , report its measured z-score.
### Response 0.593

### Prompt // returns reported z-score for input `COc1ccc([Si](C)(C)[C@@H]2[C@@H](CC(=O)N3Cc4ccccc4C[C@H]3CO)O[C@]3(C(=O)N(Cc4cccc(N5C(=O)c6cccc7cccc5c67)c4)c4ccccc43)[C@H]2C)cc1`
### Response -0.258

### Prompt Consider the compound O=C1NC(=O)C2C1C=CC(C(O)c1ccco1)N2Nc1ccccn1 (centres undefined) and give its measured z-score.
### Response 0.493

### Prompt Which z-score reading was recorded for the compound `C=CCN1C(=O)[C@@]2(O[C@@H](CCn3cc([C@H](O)c4ccccc4)nn3)[C@H]([Si](C)(C)c3ccc(OC)cc3)[C@H]2C)c2cc(N3CCC3=O)ccc21` ?
### Response 1.38

### Prompt I'd like to know its z-score. The compound in question is `COC(=O)[C@@]1(Cc2ccc(F)cc2)[C@H]2c3cc(C(=O)N(C)C)n(Cc4cc(F)cc5c4OCOC5)c3C[C@H]2CN1C(=O)c1ccccc1`
### Response -1.23

### Prompt Would you mind telling me what z-score value was observed for `C=CC[C@@]1(C(=O)N2CCOCC2)N=C(c2ccc(OCCCO)cc2)O[C@@H]1c1ccccc1CN=[N+]=[N-]` ?
### Response 0.0366

Just for reference, PubChem BioAssay is where these values come from.
